Items are presented alongside their recorded EC50.
System Tested: T1, human Claudin18.2 (human)
T1 construct: also called CLDN18.2
Assay Overview: FACS, Claudin18.2-HEK293 cells
Answer with a number only, understood to be in nM.

Here's what some known entries look like.
chimeric 237D2A4 (antibody, human IgG1, kappa, V domains shown, chimeric, human IgG1/kappa constant regions; also called 237D2A4-Chimeric) VH: QVQLKESGPGLVAPSQSLSITCTVSGFSLTSYGVSWVRQPPGKGLEWLGVIWGDGSTNYHSTLISRLRISKDKSKSQVFLKLNSLQTDDTATYYCAKAGRGNALDYWGQGTSVTVSS VL: DIVMTQSPSSLTVTAGEKVTMSCKSSQSLLNSGNQKNYLTWYQQKPGQPPKLLIYWASTRESGVPDRFTGSGSGTDFTLTISSVQAEDLAVYYCQNDYSFPLTFGAGTKLELKR :: 0.596
chimeric 246B5F2 (antibody, human IgG1, kappa, V domains shown, chimeric, human IgG1/kappa constant regions; also called 246B5F2-Chimeric) VH: EVMLVESGGGLMKPGGSLKLSCAASEFTFSNYAMSWVRQTPEKRLEWVATISSGRSSTYYPDSVKGRFTISRDNAKNTLYLQMSSLRSEDTAMYYCAGLGRGNAMEYWGQGTSVTVSS VL: DIVMTQSPSSLTVTAGEKVTLSCKSSQSLLNSGNQKNYLTWYQQKPGQPPKLLIYWASTRESGVPDRFTGSGSGTDFILTINSVQAEDLAVYYCQNAYSYPFTFGSGTKLEIKR :: 1.24

Lab note: measured EC50 of chimeric 222B6G5 (antibody, human IgG1, kappa, V domains shown, chimeric, human IgG1/kappa constant regions) VH: QTYLQQSGAELVRSGASVKMSCKASGYTFTSYNIHWVKQTPGQGLEWIGYISPGNGGTYYNLKFKDKATLTTATSSSTAYMQISSLTSEDSAVYFCATGRGFAYWGQGTLVTVSA VL: DIVMTQSPSSLTVTPGEKVTMSCKSSQSLFNSGNQKNYLIWYQQKPGQPPKLLIYRASTRDSGVPDRFTGSGSGTDFTLTISNVQAEDLAVYYCQNDYSYPLTFGAGTKLELKR was 0.61
